- Target Or Test System: UniProt:P22303
- Sequence (P22303 whole entry): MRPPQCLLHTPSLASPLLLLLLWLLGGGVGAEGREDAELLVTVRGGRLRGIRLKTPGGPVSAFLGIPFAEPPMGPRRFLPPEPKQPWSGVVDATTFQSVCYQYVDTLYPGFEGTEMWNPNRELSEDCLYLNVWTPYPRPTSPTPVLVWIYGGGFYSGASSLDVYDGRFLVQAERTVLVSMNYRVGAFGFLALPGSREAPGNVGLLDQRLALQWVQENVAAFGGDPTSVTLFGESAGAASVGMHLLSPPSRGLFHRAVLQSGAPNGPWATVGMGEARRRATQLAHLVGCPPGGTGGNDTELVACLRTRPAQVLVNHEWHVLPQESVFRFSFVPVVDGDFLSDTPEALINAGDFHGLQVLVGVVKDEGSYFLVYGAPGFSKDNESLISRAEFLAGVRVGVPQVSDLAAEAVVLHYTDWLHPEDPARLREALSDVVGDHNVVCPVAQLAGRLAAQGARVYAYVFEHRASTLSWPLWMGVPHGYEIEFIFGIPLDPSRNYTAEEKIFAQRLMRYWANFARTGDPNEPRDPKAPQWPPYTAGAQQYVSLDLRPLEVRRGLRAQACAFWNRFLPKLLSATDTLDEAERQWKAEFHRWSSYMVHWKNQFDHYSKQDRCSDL
- Experimental Protocol: Inhibition of recombinant human AChE
- Assay Conditions: read-out: kon (M-1-s-1)
Property: kon (M⁻¹ s⁻¹)
Numbers only, in M⁻¹ s⁻¹.

Some compounds with known kon results, for comparison:
CC(C)Cc1cc(OC(=O)N(C)C)no1; 26.5
CCCC(C)c1cc(=O)n(C(=O)N(CC)CC)o1 (stereo not drawn); 3000

Hey, can you go through the list below and give me kon for every item?
1. CCC(C)Cc1cc(=O)n(C(=O)N(C)C)o1 (stereo not drawn)
2. CC(C)c1cc(=O)n(C(=O)N(C)C)o1
3. CN(C)C(=O)n1oc(CCC2CCCC2)cc1=O
4. CNC(=O)Oc1ccccc1OC(C)C [CHEBI:34938]
5. CN(C)C(=O)Oc1cc(CCC2CCCC2)on1
6. CC(C)CCc1cc(=O)n(C(=O)N(C)C)o1

Result:
1. 1870
2. 9350
3. 1530
4. 283
5. 218
6. 1350

Parameters: items (list). Returns: kon for each item.
1. CCCCC(CC)c1cc(OC(=O)N(C)C)no1 (stereo not drawn)
2. CCCC(C)c1cc(OC(=O)N2CCOCC2)no1 (stereo not drawn)
3. CN(C)C(=O)Oc1cc(C2CCC2)on1

Result:
35.5
44.7
31

// batch mode: one kon value per listed entry
1. CN(C)C(=O)n1oc(CCC2CCC2)cc1=O
2. Cc1cc(=O)n(C(=O)N(C)C)o1

Result:
1: 1240; 2: 20.3
